Molecular target: GluN1/2A(M630A) receptors (Rattus norvegicus, UniProt P35439+Q00959, M630A)
Sequence (Q00959 23-1464 M630A, other chains not shown): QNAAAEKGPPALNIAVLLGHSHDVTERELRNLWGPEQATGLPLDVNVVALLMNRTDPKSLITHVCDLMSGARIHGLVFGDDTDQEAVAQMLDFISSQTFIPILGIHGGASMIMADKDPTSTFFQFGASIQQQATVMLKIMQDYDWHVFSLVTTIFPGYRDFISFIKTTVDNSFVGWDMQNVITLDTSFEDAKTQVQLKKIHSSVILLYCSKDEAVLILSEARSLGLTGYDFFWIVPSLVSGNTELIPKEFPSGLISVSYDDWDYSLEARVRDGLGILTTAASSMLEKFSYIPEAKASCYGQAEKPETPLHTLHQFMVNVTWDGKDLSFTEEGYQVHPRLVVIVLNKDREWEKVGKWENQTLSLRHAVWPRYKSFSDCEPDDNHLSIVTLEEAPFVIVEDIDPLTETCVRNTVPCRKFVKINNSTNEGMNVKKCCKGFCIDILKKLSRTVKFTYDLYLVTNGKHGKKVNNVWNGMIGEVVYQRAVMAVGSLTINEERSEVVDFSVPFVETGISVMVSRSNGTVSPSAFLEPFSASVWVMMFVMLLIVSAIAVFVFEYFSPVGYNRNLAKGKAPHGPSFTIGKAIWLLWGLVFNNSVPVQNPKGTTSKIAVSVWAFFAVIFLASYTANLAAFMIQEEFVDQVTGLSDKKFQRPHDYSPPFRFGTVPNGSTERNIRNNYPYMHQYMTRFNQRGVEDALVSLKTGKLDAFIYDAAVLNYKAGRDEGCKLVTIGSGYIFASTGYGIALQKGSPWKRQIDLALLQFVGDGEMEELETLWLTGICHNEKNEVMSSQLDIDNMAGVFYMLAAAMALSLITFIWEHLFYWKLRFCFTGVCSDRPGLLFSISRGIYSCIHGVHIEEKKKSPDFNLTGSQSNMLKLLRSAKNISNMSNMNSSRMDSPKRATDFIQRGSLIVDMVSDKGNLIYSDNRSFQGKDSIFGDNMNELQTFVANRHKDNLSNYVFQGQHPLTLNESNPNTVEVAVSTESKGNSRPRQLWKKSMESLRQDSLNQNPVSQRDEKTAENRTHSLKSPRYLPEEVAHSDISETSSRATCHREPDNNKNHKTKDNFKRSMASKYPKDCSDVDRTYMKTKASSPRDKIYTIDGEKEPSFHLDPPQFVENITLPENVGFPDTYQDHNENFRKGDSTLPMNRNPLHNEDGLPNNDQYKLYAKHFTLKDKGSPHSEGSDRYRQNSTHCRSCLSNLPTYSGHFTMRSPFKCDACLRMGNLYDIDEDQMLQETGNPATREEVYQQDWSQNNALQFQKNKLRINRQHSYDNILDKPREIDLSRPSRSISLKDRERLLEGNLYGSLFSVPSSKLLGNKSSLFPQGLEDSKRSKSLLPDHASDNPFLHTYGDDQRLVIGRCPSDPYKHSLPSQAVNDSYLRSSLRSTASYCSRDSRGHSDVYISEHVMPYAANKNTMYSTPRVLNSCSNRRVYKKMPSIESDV
Test: MCI protocol, GluN1/2A(M630A)
metricName: IC50 (µM)
The response must be a number in µM with no trailing unit.

Record lookup: for GluN1/2A(M630A) receptors (Rattus norvegicus, UniProt P35439+Q00959, M630A), what IC50 belongs to CC12CC3CC(C)(C1)CC(N)(C3)C2 [memantine] ?
51.4

----------
Molecular target: GluN1/2A receptors (Rattus norvegicus, UniProt P35439+Q00959)
Construct: expressed in transfected cells; host or cells: tsA201 cells (HEK 293 variant)
Sequence (Q00959 23-1464, other chains not shown): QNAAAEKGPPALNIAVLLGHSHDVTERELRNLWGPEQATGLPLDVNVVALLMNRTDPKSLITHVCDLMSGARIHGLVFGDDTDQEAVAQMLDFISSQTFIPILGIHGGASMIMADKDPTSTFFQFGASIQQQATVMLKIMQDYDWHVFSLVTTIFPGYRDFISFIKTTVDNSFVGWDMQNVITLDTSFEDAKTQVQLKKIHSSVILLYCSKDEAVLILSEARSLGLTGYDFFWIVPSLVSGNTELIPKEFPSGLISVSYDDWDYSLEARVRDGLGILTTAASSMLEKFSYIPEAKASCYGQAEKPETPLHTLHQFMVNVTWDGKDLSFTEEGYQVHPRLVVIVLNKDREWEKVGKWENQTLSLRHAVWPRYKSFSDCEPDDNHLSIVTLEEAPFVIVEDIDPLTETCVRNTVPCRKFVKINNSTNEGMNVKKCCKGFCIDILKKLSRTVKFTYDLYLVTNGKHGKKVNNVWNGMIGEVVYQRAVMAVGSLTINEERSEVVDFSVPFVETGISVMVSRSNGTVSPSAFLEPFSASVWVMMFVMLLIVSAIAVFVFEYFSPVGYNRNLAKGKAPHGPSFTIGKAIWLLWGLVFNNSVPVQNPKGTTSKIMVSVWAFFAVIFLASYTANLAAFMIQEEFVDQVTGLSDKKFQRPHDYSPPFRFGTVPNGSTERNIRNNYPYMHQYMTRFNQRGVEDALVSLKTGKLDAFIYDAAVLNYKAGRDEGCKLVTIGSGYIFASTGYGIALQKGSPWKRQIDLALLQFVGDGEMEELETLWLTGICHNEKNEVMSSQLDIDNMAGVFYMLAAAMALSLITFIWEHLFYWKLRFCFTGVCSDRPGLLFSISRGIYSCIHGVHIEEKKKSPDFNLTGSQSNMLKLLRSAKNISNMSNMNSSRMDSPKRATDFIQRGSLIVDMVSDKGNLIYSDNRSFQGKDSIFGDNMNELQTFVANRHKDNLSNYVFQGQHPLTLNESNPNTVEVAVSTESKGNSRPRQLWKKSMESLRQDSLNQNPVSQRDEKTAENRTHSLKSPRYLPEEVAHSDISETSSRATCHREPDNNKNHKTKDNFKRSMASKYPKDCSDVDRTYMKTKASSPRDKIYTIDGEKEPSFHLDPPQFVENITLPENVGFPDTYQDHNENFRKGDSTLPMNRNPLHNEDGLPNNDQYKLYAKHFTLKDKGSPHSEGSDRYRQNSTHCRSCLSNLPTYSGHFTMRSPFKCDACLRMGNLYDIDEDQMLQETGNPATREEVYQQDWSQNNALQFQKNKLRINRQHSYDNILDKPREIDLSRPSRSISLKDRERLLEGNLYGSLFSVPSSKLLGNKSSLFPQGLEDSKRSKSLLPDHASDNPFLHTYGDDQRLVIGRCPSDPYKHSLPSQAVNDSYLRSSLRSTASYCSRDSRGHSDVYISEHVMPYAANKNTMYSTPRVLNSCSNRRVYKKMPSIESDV
Assay: Traditional channel block (coapplication of drug and agonists), tsA201 cells
Format: cell-based
Conditions: traditional IC50, pH 7.2, WT, −65 mV
metricName: pIC50
Note: pIC50 values are expressed as the negative base-10 logarithm of concentration in M.

# pIC50 lookup, item CC12CC3CC(C)(C1)CC(N)(C3)C2 [memantine]
5.77
